System: BDBV mucin-domain-deleted glycoprotein pseudotyped VSV
Test: microbe, parasite or virus in culture
Type: cell-based, Bundibugyo ebolavirus
Conditions: Vesicular stomatitis virus, Vero, read-out: EC50 BDBV
pEC50: −log10 of the molar value.
reported.metric: pEC50

- compound: "CN1CCN(CC23CC4CC(C2)CC(c2ccccc2)(C4)C3)CC1 [Example C1]"
  comparative.sign: "="
  val: 6.69
- compound: "CCC12CC3CC(C(=O)N[C@H]4CC[C@H](N)CC4)(C1)CC(c1ccccc1)(C3)C2 (stereo partly shown) [Example A85]"
  comparative.sign: "="
  val: 7.02
- compound: "O=C(N1CCC(NCc2ccccc2)CC1)C12CC3CC(C1)CC(c1ccccc1)(C3)C2 [Example A49]"
  comparative.sign: "="
  val: 6.54
- compound: "CN1CCN(CC(O)CCOc2ccc(C34CC5CC(CC(C5)C3)C4)cc2)CC1 (stereo not shown) [Example C9]"
  comparative.sign: "="
  val: 6.00
- compound: "C[C@H]1C[C@@H](NC(=O)C23CC4CC(C)(C2)CC(c2ccccc2)(C4)C3)CCN1 (stereo partly shown) [Example A110]"
  comparative.sign: "="
  val: 6.72
- compound: "COc1ccc(C23CC4CC(CC(C(=O)NC5CCNCC5)(C4)C2)C3)cc1 [Example A67]"
  comparative.sign: "="
  val: 6.39
- compound: "O=C(C1C2CC3CC(C2)CC1C3)N1CCN(Cc2ccccc2)CC1 (stereo not shown) [Example A31]"
  comparative.sign: "<"
  val: 5.00
- compound: "O=C(N1CCNCC1)C12CC3CC(C1)CC(c1ccccc1)(C3)C2 [Example A60]"
  comparative.sign: "="
  val: 6.77
- compound: "C[C@H]1CNCCN1C(=O)C12CC3CC(C)(C1)CC(c1ccccc1)(C3)C2 (stereo partly shown) [Example A83]"
  comparative.sign: "="
  val: 6.74
- compound: "N[C@H]1CC[C@H](NC(=O)C23CC4CC(CO)(C2)CC(c2ccccc2)(C4)C3)CC1 (stereo partly shown) [Example A116]"
  comparative.sign: "<"
  val: 6.00
- compound: "CN(C(=O)C12CC3CC(C)(C1)CC(c1ccccc1)(C3)C2)C1CCNCC1 (stereo not shown) [Example A104]"
  comparative.sign: "="
  val: 6.66
- compound: "O=C(N1CC2CC1CN2)C12CC3CC(C1)CC(c1ccccc1)(C3)C2 (stereo not shown) [Example A65]"
  comparative.sign: "="
  val: 7.05
- compound: "CN1CC(NC(=O)CC23CC4CC(C2)CC(c2ccccc2)(C4)C3)C1 [Example A39]"
  comparative.sign: "="
  val: 6.68
- compound: "O=C(CC12CC3CC(C1)CC(c1ccccc1)(C3)C2)NC1CCNCC1 [Example A70]"
  comparative.sign: "="
  val: 6.72
- compound: "O=C(N1CC2(CN(Cc3ccccc3)C2)C1)C12CC3CC(C1)CC(c1ccccc1)(C3)C2 [Example A9]"
  comparative.sign: "="
  val: 6.54
- compound: "O=C(NC1CCNCC1)NC12CC3CC(C1)CC(c1ccccc1)(C3)C2 [Example E1]"
  comparative.sign: "="
  val: 6.11
- compound: "O=C(NC1CCNCC1)C12CC3CC1CC(c1ccccc1)(C3)C2 (stereo not shown) [Example A88]"
  comparative.sign: "="
  val: 6.30
- compound: "O=C(CC12CC3CC(C1)CC(c1ccccc1)(C3)C2)NCC(=O)N1CCC2(CCN(Cc3ccccc3)C2)C1 (stereo not shown) [Example A11]"
  comparative.sign: "="
  val: 6.64
- compound: "CC1CCN(C[C@H](O)COCCC23CC4CC(C2)CC(c2ccccc2)(C4)C3)CC1 [Example C12]"
  comparative.sign: "="
  val: 6.72
- compound: "CC1CCN(CCCOc2ccc(C34CC5CC(CC(C5)C3)C4)cc2)CC1 [Example C4]"
  comparative.sign: "="
  val: 6.40
- compound: "O=C(N[C@@H]1CCCN(Cc2ccccc2)C1)C12CC3CC(C1)CC(c1ccccc1)(C3)C2 [Example A34]"
  comparative.sign: "="
  val: 6.66
- compound: "O=C(CC12CC3CC(CC(C3)C1)C2)NC1CCN(Cc2ccccc2)CC1 [Example A51]"
  comparative.sign: "<"
  val: 5.00
- compound: "N[C@H]1CC[C@H](NC(=O)C23CC4CC2CC(c2ccccc2)(C4)C3)CC1 (stereo partly shown) [Example A87]"
  comparative.sign: "="
  val: 6.72
- compound: "O=C(CNC(=O)C12CC3CC(C1)CC(c1ccccc1)(C3)C2)N1CC2CC1CN2Cc1ccccc1 (stereo not shown) [Example A8]"
  comparative.sign: "="
  val: 6.66
- compound: "O=C(CNC(=O)C12CC3CC(C1)CC(c1ccccc1)(C3)C2)N1CCN(Cc2ccccc2)CC1 [Example A16]"
  comparative.sign: "="
  val: 6.46
- compound: "O=C(CNC(=O)C12CC3CC(C1)CC(c1ccccc1)(C3)C2)N1CCC2(CCN(Cc3ccccc3)C2)C1 (stereo not shown) [Example A2]"
  comparative.sign: "="
  val: 6.41
- compound: "O=C(CC12CC3CC(CC(C3)C1)C2)NCC(=O)NC1CCN(Cc2ccccc2)CC1 [Example A54]"
  comparative.sign: "="
  val: 5.00
- compound: "CN1CC[C@@H](NC(=O)C23CC4CC(C2)CC(c2ccccc2)(C4)C3)C1 [Example A37]"
  comparative.sign: "="
  val: 6.62
- compound: "O=C(NC1CCNCC1)C12CC3CC(C1)CC(c1ccc(F)cc1)(C3)C2 [Example A75]"
  comparative.sign: "="
  val: 6.52
- compound: "O=C(NCC12CC3CC(C1)CC(c1ccccc1)(C3)C2)C1CCNCC1 [Example E6]"
  comparative.sign: "="
  val: 6.70
- compound: "O=C(N1CC2CCNC2C1)C12CC3CC(C1)CC(c1ccccc1)(C3)C2 (stereo not shown) [Example A62]"
  comparative.sign: "="
  val: 6.96
- compound: "CC12CC3CC(C(=O)NC4CCNCC4(F)F)(C1)CC(c1ccccc1)(C3)C2 (stereo not shown) [Example A109]"
  comparative.sign: "="
  val: 6.03
- compound: "O=C(NC1CCNCC1)C12CC3CC(C1)CC(c1ccc(Cl)cc1)(C3)C2 [Example A69]"
  comparative.sign: "="
  val: 6.62
- compound: "O=C(N1CCC2(CCNC2)C1)C12CC3CC(C1)CC(c1ccccc1)(C3)C2 (stereo not shown) [Example A64]"
  comparative.sign: "="
  val: 6.74

Hello, the source for this data is patent US12240857B2, in case you need it.
